// data source = patent US20210380703A1

# systemTested: T1, Goat anti-Human Kappa
# T1 construct: Positive control of the ELISA; also called biotinylated goat anti-human kappa light chain
# assaySummary: ELISA, positive control; also: test concentration or dose not given here
// reported optical density per item
Express it in OD; write the number only.

1) 373_D01 (antibody, V domains shown) VH: EVQLLESGGGLVQPGGSLRLSCAASGFTFDSYSMNWVRQAPGKGLEWVSGINYNSGYKSYADSVKGRFTISRDNSKNTLYLQMNSLRAEDTAVYYCARSANWHDTHLDYWGQGTLVTVSS VL: DIQMTQSPSSLSASVGDRVTITCRASQSILSYVNWYQQKPGKAPKLVIYAATSRASGVPSRFSGSGSGTDFTLTISSLQPEDFATYYCQQSYDSPLTFGGGTKVEIK	3.04

Proceeding to the next binder to report its optical density.
I am curious: what optical density value has been reported for 370_C03 (antibody, V domains shown) VH: EVQLLESGGGLVQPGGSLRLSCAASGFTFSSYGMNWVRQAPGKGLEWVAGINYNGGYKGYADSVKGRFTISRDNSKNTLYLQMNSLRAEDTAVYYCARSANWHDTALDYWGQGTLVTVSS VL: DIQMTQSPSSLSASVGDRVTITCRASQSILTYLNWYQQKPGKAPKLLIYYVTNRQSGVPSRFSGSGSGTDFTLTISSLQPEDFATYYCQQSYSSPLTFGGGTKVEIK ?
3.57
